FYI, the data here is from PubChem BioAssay (NCI).

# System: NCI-H226 lung
# protocolDescription: NCI tumour cell line growth inhibition, 48 h
measuredMetric: TGI

COC(=O)c1ccc2c(c1)nc(-c1cc3ccccc3[nH]c1=O)n2-c1cc(C(C)(C)C)[nH]n1	> 100 µM
COc1ccc(C(=O)c2ccc(OC)c(OC)c2OC)cc1	> 100 µM
CSc1cnn(CCC#N)c(=O)n1	> 100 µM
COC(=O)C(O)P(=O)(OC)OC (stereo not given)	> 100 µM
CCSCC(N)C(=O)O (stereo not given)	> 100 µM

Hi! Can you tell me TGI for each of these molecules?
1. CN1CCCNc2c(c(=O)c2=O)NCCCN(C)CCCNc2c(c(=O)c2=O)NCCCN(C)CCCNc2c(c(=O)c2=O)NCCCN(C)CCCNc2c(c(=O)c2=O)NCCCN(C)CCCNc2c(c(=O)c2=O)NCCCN(C)CCCNc2c(c(=O)c2=O)NCCCN(C)CCCNc2c(c(=O)c2=O)NCCC1
2. CC(=O)Oc1cc(OC(C)=O)c2c(=O)c3ccccc3[nH]c2c1
3. Cc1cccc2c1Oc1ccccc1C2NC(=O)c1ccc([N+](=O)[O-])cc1 (stereo not given)

Result:
1: 21.8 µM; 2: 88.9 µM; 3: 63.9 µM
